System: Salmonella typhi
Assay: Bactericidal activity against Salmonella typhi CECT 409 at 0.2 mg/disk after 24 hrs by paper disk-agar diffusion method
Assay type: functional, Salmonella enterica subsp. enterica serovar Typhi
ATTRIBUTE MEASURED: inhibition zone (IZ) (mm)
The response must be a number in mm with no trailing unit.

Worked cases, answers included:
1) COc1cc2c(cc1OC)C(CCCCCOC(=O)CCc1ccc(Cl)cc1)N(C)CC2 (stereo not drawn)
8.17
2) COc1ccc(CCC(=O)OCCCCCC2c3cc(OC)c(OC)cc3CCN2C)cc1 (stereo not drawn)
8

Consider the additional molecule presented here.
Ask: // query inhibition zone (IZ) value for entry COc1cc2c(cc1OC)C(CCCCCOC(=O)Nc1ccc(F)cc1)N(C)CC2 (stereo not drawn)
Reply: 14.67

----------
Readings of inhibition zone (IZ) for the listed compounds
System: Fusarium culmorum
Assay: Fungicidal activity against Fusarium culmorum CCM 172 at 0.2 mg/disk after 72 hrs by paper disk-agar diffusion method
Type: functional
Unit mm implied. Number only.

1. COc1cc2c(cc1OC)C(CCCCCOC(=O)c1ccc(Cl)cc1)N(C)CC2 (centres undefined)
6.67

Ask: Value lookup for inhibition zone (IZ); key = COc1cc2c(cc1OC)C(CCCCCOC(=O)NCCc1ccc(F)cc1)N(C)CC2 (centres undefined)
Reply: 0

Ask: Need inhibition zone (IZ) of COc1cc2c(cc1OC)C(CCCCCOC(=O)c1ccc(F)cc1)N(C)CC2 (centres undefined) , thanks.
Reply: 8

Ask: Fill in the blank: the reported inhibition zone (IZ) of COc1ccc(NC(=O)OCCCCCC2c3cc(OC)c(OC)cc3CCN2C)cc1 (centres undefined) is ____.
Reply: 0
